# reported melting point; entries follow
The reply should be a number in °C, with the unit left off.

See these solved cases before continuing.
| Structure As Smiles | melting point / °C |
| --- | --- |
| NS(=O)(=O)c1ccc(-c2cccc(-c3nc(-c4ccc(F)cc4)cc(C(F)(F)F)n3)c2)s1 | 228.5 |
| Cc1cc(-c2cc(C(F)(F)F)nc(-n3cnc(-c4ccc(N)nc4)c3)n2)ccc1C(F)(F)F | 290 |
| CC(C)(C)NS(=O)(=O)c1cccc(-c2cc(-c3cc(C(F)(F)F)cc(-c4ccc(C(F)(F)F)cc4)n3)ccn2)c1 | 196 |

For the next question, use this molecule.
// query Record request: melting point value, item NS(=O)(=O)c1cccc(-c2nc(-c3nc(-c4ccc(Cl)cc4)cc(C(F)(F)F)n3)no2)c1
// result 273

* * *

Entries whose melting point is below 200 °C take Satisfied; entries at or above 200 °C take Not satisfied.

These solved cases illustrate the format of a correct answer.
| Structure As Smiles | Label Class |
| --- | --- |
| Cc1cc(-c2ccc(OC(F)(F)F)cc2)cc(-c2cccc(-c3cccc(S(=O)(=O)NC(C)(C)C)c3)n2)n1 | Satisfied |
| Cc1cc(-c2cc(C(F)(F)F)nc(-c3ccnc(-c4cccc(S(N)(=O)=O)c4)c3)n2)ccc1Cl | Not satisfied |
| NS(=O)(=O)c1ccc(-c2cn(-c3nc(-c4ccc(Cl)cc4)cc(C(F)(F)F)n3)cn2)s1 | Not satisfied |
| Cc1cc(-c2ccc(C(F)(F)F)cc2)cc(-c2ccnc(-c3cccc(S(=O)(=O)N4CCOCC4)c3)c2)n1 | Satisfied |
| NS(=O)(=O)c1ccc(-c2cn(-c3nc(-c4ccc(Cl)c(Cl)c4)cc(C(F)(F)F)n3)cn2)cc1 | Not satisfied |

// query Is the reported melting point for CONS(=O)(=O)c1cccc(-c2cccc(-c3cc(-c4ccc(C(F)(F)F)cc4)cc(C)n3)c2)c1 strictly below 200 °C?
// result Satisfied

// query Same for Cc1cc(-c2cc(C(F)(F)F)nc(-c3cccc(-c4ccc(N)nc4)c3)n2)ccc1C(F)(F)F
// result Not satisfied

// query Further, for CC(=O)NS(=O)(=O)c1cccc(-c2cccc(-c3cc(-c4ccc(C(F)(F)F)cc4)cc(C)n3)n2)c1 ?
// result Not satisfied

// query What do you have for FC(F)(F)c1cc(-c2ccc(Cl)cc2)nc(-n2cnc(-c3ccncc3)c2)n1 ?
// result Not satisfied

// query Would you mind doing NS(=O)(=O)c1cccc(-c2cccc(-c3nc(-c4ccc(C(F)(F)F)cc4)cc(C(F)(F)F)n3)c2)c1 as well?
// result Not satisfied

* * *

// melting point lookup, one value per entry
State the answer as a number, implicitly in °C.

Known results for compounds:
| Structure As Smiles | melting point [°C] |
| --- | --- |
| FC(F)(F)c1ccc(-c2cc(C(F)(F)F)nc(-c3cccc(-c4cccnc4)c3)n2)cc1 | 194 |
| Cc1cc(-c2ccc(C(F)(F)F)cc2)nc(-n2cc(-c3ccc(N)nc3)nc2C)n1 | 227.5 |
| Cc1cc(-c2ccc(C(F)(F)F)cc2)cc(-c2ccnc(-c3cccc(S(=O)(=O)NC(C)(C)C)c3)n2)n1 | 218 |
| O=S(=O)(NCCO)c1cccc(-c2cc(-c3nc(-c4ccc(C(F)(F)F)cc4)cc(C(F)(F)F)n3)ccn2)c1 | 192.5 |
| Nc1ccc(-c2cn(-c3nc(-c4ccc(C(F)(F)F)cc4)cc(C(F)(F)F)n3)cn2)cc1 | 270 |

// query What value of melting point has been recorded for this entry: Nc1cc(-c2noc(-c3nc(-c4ccc(C(F)(F)F)cc4)cc(C(F)(F)F)n3)n2)ccn1
// result 223.5

// query Entry NS(=O)(=O)c1cccc(-c2noc(-c3cc(C(F)(F)F)cc(-c4ccc(C(F)(F)F)cc4)n3)n2)c1 please
// result 211

// query Please answer likewise for Cc1cc(-c2ccc(Cl)c(Cl)c2)cc(-n2ccnc2)n1
// result 227

// query NS(=O)(=O)c1ccc(-c2cccc(-c3nc(-c4ccc(Cl)cc4Cl)cc(C(F)(F)F)n3)c2)s1 ?
// result 237.5

// query Then this compound: Nc1ccc(-c2cn(-c3nc(-c4ccc(F)c(F)c4)cc(C(F)(F)F)n3)cn2)cn1
// result 232

// query Thanks! And Cc1cc(-c2cc(C(F)(F)F)nc(-n3cnc(-c4ccc(S(N)(=O)=O)s4)c3)n2)ccc1C(F)(F)F ?
// result 260

// query Next compound up: Cc1cc(-c2ccc(C(F)(F)F)cc2)nc(-c2ccnc(-c3ccc(S(=O)(=O)NC(C)(C)C)s3)c2)c1
// result 209

* * *

# melting point annotations
Give just the numeric value; °C need not be written.

Solved entries:
| Molecule | melting point (°C) |
| --- | --- |
| Cc1cc(-c2ccc(C(F)(F)F)cc2)nc(-c2nc(-c3cccc(S(N)(=O)=O)c3)no2)n1 [Example 126] | 240.5 |
| Cc1cc(-c2ccc(C(F)(F)F)cc2)cc(-c2nc(-c3ccc(S(=O)(=O)NC(C)(C)C)s3)cs2)n1 [Example 324] | 171 |

# input for lookup
// query Query: melting point; subject: Cc1cc(-c2ccc(Cl)cc2)nc(-c2ccnc(-c3cccc(S(N)(=O)=O)c3)c2)n1 [Example 189]
// result 224

* * *

Recorded Metric: melting point (°C)
# unit: °C | format: bare number

Previously resolved entries follow.
| Structure As Smiles | melting point / °C |
| --- | --- |
| Nc1ccc(-c2noc(-c3nc(-c4ccc(C(F)(F)F)cc4)cc(C(F)(F)F)n3)n2)cn1 | 218.5 |
| FC(F)(F)c1ccc(-c2cc(C(F)(F)F)nc(-n3cnc(-c4ccncc4)n3)n2)cc1 | 248 |
| O=S(=O)(NCCO)c1cccc(-c2cccc(-c3nc(-c4ccc(C(F)(F)F)cc4)cc(C(F)(F)F)n3)c2)c1 | 153 |
| Nc1ccc(-c2cn(-c3nc(-c4ccc(Cl)cc4)cc(C(F)(F)F)n3)cn2)cn1 | 254 |
| FC(F)(F)c1ccc(-c2cc(C(F)(F)F)nc(-n3cnc(-c4cccnc4)n3)n2)cc1 | 190 |

// query Quick check: melting point of CC(C)(C)NS(=O)(=O)c1cccc(-c2cc(-c3nc(-c4ccc(C(F)(F)F)cc4)cc(C(F)(F)F)n3)ccn2)c1 ?
// result 211

* * *

Label Yes when melting point is at or above 200 °C; otherwise label No.

| Structure As Smiles | Label Class |
| --- | --- |
| CCNS(=O)(=O)c1cccc(-c2cccc(-c3cc(-c4ccc(C(F)(F)F)cc4)cc(C)n3)n2)c1 | No |
| NS(=O)(=O)c1cccc(-c2cccc(-c3nc(-c4ccc(F)cc4)cc(C(F)(F)F)n3)c2)c1 | Yes |
| Nc1ncc(-c2cccc(-c3cc(-c4ccc(C(F)(F)F)cc4)cc(C(F)(F)F)n3)c2)cn1 | Yes |
| Cc1cc(-c2ccc(Cl)c(Cl)c2)nc(-c2ccnc(-c3ccc(S(N)(=O)=O)s3)c2)n1 | Yes |

// query Quick check, melting point >= 200 °C? Nc1ccc(-c2cn(-c3nc(-c4ccc(C(F)(F)F)cc4)cc(C(F)(F)F)n3)cn2)cn1
// result Yes

// query For Cc1cc(-c2cc(C(F)(F)F)nc(-c3cccc(-c4ccc(S(N)(=O)=O)s4)c3)n2)ccc1C(F)(F)F then?
// result Yes

// query Try this compound next: CSc1cccc(-c2cccc(-c3cc(-c4ccc(C(F)(F)F)cc4)cc(C)n3)n2)c1
// result No

// query Same thing, different compound: FC(F)c1cc(-c2ccc(C(F)(F)F)cc2)nc(-c2ccncc2)n1
// result No

// query Entry Nc1ccc(-c2cccc(-c3nc(-c4ccc(Cl)c(Cl)c4)cc(C(F)(F)F)n3)c2)cn1 please
// result No

// query Next: Cc1cc(-c2ccc(C(F)(F)F)cc2)cc(-c2ccnc(-c3ccnc(N)c3)n2)n1
// result Yes

// query How about this compound: COCC(=O)NS(=O)(=O)c1cccc(-c2cccc(-c3cc(-c4ccc(C(F)(F)F)cc4)cc(C)n3)n2)c1
// result No

// query Query Cc1cc(-c2ccc(C(F)(F)F)cc2)cc(-c2cccc(-c3cccc(S(=O)(=O)NC4CC4)c3)n2)n1 next
// result No

* * *

Assign class by melting point: not lower than 300 °C means Y; lower than 300 °C means N.

Take a look at these entries with their results.
| Molecule | Label Class |
| --- | --- |
| Cc1cc(-c2ccc(C(F)(F)F)cc2)nc(-c2nc(-c3ccc(S(N)(=O)=O)cc3)no2)n1 [Example 118] | Y |
| Nc1ncc(-c2cccc(-c3cc(-c4ccc(Cl)cc4)cc(C(F)(F)F)n3)c2)cn1 [Example 234] | N |
| NS(=O)(=O)c1ccc(-c2nc(-c3nc(-c4ccc(Cl)cc4)cc(C(F)(F)F)n3)no2)s1 [Example 24] | N |
| Cc1cc(-c2ccc(Cl)cc2)nc(-c2nc(-c3ccc(N)nc3)no2)n1 [Example 137] | N |

Then this molecule:
// query Tell me whether melting point is at least 300 °C here: Cc1cc(-c2ccc(Cl)cc2)nc(-n2cnc(-c3ccc(S(N)(=O)=O)cc3)c2)n1 [Example 180]
// result Y
